target: KRasG12C (Homo sapiens, UniProt P01116, G12C); construct: biotin (biotinylated); made in house; assay: KRasG12C functional assay (HTRF/FRET nucleotide exchange and Raf RBD binding); assay type: biochemical; settings: GDP loaded biotinylated KRasG12C, samples incubated for 4 hrs, FRET readout; single experiment or average of two or more; read-out: KRasG12C functional assay IC50
Sequence (P01116 1-188 isoform P01116-2 G12C): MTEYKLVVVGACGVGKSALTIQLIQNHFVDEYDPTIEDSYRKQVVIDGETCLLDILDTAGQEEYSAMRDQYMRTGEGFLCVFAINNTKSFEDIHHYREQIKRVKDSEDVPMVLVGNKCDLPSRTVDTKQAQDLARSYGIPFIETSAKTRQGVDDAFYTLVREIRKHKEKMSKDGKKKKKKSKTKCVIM
pIC50: −log10 of the molar value.
The label depends only on pIC50: label 1 if it is at least 7, label 0 if it is smaller.

>  <MOLECULE>
C=CC(=O)N1CCN2C(=O)c3cc(C)c(-c4c(O)cccc4F)c(Cl)c3OC[C@H]2C1 (single isomer, unassigned) [Example 24]

>  <CATEGORY>
label 0

$$$$
>  <MOLECULE>
C=CC(=O)N1CCN2Cc3cc(Cl)c(-c4c(C)cccc4O)c(F)c3OC[C@H]2C1 (single isomer, unassigned) [Example 61]

>  <CATEGORY>
label 1

$$$$

Continue with the molecule presented below.
Task item: pIC50 >= 7 for C=CC(=O)N1CCN2Cc3cc(F)c(-c4c(O)cccc4Cl)c(Cl)c3OC[C@H]2C1 (single isomer, unassigned) [Example 35] ?
Reply: label 1

The origin of these recorded values is patent US12410187B2.
